Ref: ChEMBL document CHEMBL4330073

biological target: Glutaminase kidney isoform, mitochondrial (Homo sapiens, UniProt O94925); test: Inhibition of recombinant GAC (unknown origin) after 15 mins in presence of NADPH by glutamate oxidase coupled spectrophotometric analysis
pIC50: −log10 of the molar value.
recorded.endpoint: pIC50

O=C(Cc1cccc(OC(F)(F)F)c1)Nc1ccc(CCCCc2nnc(NC(=O)Cc3ccccn3)s2)cn1 tested on Glutaminase kidney isoform, mitochondrial (Homo sapiens, UniProt O94925) gave pIC50: 7.00 to 7.30

====

The entries below come with measured IC50 values attached.
Molecular target: Glutaminase kidney isoform, mitochondrial (Homo sapiens, UniProt O94925)
Sequence (O94925 whole entry): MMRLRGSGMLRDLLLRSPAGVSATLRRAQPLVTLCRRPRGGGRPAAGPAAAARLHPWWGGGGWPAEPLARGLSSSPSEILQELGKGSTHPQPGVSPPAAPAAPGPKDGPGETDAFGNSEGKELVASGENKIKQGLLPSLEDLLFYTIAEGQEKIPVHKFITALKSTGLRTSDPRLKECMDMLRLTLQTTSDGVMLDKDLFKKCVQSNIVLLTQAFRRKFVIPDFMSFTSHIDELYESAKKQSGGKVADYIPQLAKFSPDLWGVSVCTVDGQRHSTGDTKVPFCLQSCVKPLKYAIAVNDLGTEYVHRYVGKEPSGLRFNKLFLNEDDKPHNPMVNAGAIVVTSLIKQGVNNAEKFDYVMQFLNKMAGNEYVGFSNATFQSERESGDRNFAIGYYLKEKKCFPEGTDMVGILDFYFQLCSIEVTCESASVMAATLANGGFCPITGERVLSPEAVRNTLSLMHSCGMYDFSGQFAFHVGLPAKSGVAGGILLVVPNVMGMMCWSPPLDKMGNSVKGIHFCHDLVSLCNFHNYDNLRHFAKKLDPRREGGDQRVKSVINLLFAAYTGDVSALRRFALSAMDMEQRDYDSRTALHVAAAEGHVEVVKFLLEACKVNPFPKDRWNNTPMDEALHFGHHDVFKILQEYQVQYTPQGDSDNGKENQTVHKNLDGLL
Assay: Inhibition of human GAC after 10 mins by glutamate oxidase coupled Amplex UltraRed dye based assay

Record CNC(=O)c1cn(CCCCc2ccc(C(=O)NCc3ccccc3)nn2)nn1 , field IC50: < 100 nM

Record O=C(NCc1ccccc1)c1cn(CCCCn2cc(C(=O)NCc3cccc(C(F)(F)F)n3)nn2)nn1 , field IC50: 100 to 500 nM

Record O=C(NCc1cccc(C(F)(F)F)c1)c1cn(CCCCn2cc(C(=O)NCc3cccc(C(F)(F)F)n3)nn2)nn1 , field IC50: < 100 nM

Record O=C(Cc1ccccc1)Nc1nnc(CCCCn2cc(C(=O)NCc3ccccc3)nn2)s1 , field IC50: < 100 nM

Record O=C(NCC1CCCCC1)c1cn(CCCCn2cc(C(=O)NCC3CCCCC3)nn2)nn1 , field IC50: > 500 nM
